Overview of recorded koff for various binders
molecular target: recombinant human ROR1 extracellular domain with a C-terminal 6xHis tag (human) (UniProt Q01973); assay: SPR (Biacore T200): scFv-mFc captured on anti-mouse IgG chip, ROR1 ECD 6xHis injected, multi-cycle kinetics, 1:1 model
Sequence (Q01973 other isoform, or with tags, fused parts or gaps): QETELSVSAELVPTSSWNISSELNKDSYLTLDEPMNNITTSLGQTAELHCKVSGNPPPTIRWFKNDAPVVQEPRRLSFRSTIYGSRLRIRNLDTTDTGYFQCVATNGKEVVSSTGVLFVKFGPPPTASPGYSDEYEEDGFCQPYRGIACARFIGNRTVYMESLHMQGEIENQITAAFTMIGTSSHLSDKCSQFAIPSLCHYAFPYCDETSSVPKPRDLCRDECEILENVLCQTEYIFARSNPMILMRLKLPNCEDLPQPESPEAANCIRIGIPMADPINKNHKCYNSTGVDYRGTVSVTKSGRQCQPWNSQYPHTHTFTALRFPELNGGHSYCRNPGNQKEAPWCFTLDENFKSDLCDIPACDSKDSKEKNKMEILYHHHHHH
Value Type: koff (s⁻¹)

binder="anti-ROR1 scFv ROR1-1 fused to murine IgG2a Fc (scFv-mFc) (Fc fusion, part only; not given: murine IgG2a Fc and junction, not shown: another chain or arm of the molecule; a dimerising Fc or GST) scFv: QVQLQESGPGLVKPSETLSLTCTVSGGSISNYYWSWIRQPAGKGLEWIGRIYTSGSTNYNPSLKSRVTMSVDTSKNQFSLKLSSLTAADTAIYYCARYYDILTGFFDYWGQGTLVTVSSGGGGSGGGGSGGGGSVIWMTQSPSLLSASTGDSVTISCRMSQDISSYLAWYQQKPGKAPELLIYAASSLQSGVPSRFSGSGSGTDFTLTISSLQSEDFATYYCQQYDSFPPTFGQGTKVEFKR" result_unit=s⁻¹ measured_value=0.005
binder="reference R12 scFv fused to murine IgG2a Fc (scFv-mFc) (Fc fusion, part only; not given: murine IgG2a Fc and junction, not shown: another chain or arm of the molecule; a dimerising Fc or GST) scFv: QEQLVESGGRLVTPGGSLTLSCKASGFDFSAYYMSWVRQAPGKGLEWIATIYPSSGKTYYATWVNGRFTISSDNAQNTVDLQMNSLTAADRATYFCARDSYADDGALFNIWGPGTLVTISSGGGGSGGGGSGGGGSELVLTQSPSVSAALGSPAKITCTLSSAHKTDTIDWYQQLQGEAPRYLMQVQSDGSYTKRPGVPDRFSGSSSGADRYLIIPSVQADDEADYYCGADYIGGYVFGGGTQLTVTG" result_unit=s⁻¹ measured_value=0.000579
binder="anti-ROR1 scFv ROR1-4 fused to murine IgG2a Fc (scFv-mFc) (Fc fusion, part only; not given: murine IgG2a Fc and junction, not shown: another chain or arm of the molecule; a dimerising Fc or GST) scFv: QVQLLQSGAEVKKPGASVKVSCKASGYTFTSYGISWVRQAPGQGLEWMGWISAYTGNTRYAQKLQGRVTMTTDTSTSTAYMELRSLRSDDTAVYYCAREEGATTDYDYYGMDVWGQGTAVTVSSGGGGSGGGGSGGGGSQLVLTQSPSASASLGASVKLTCTLSSGHSSYAIAWHQQQPEKGPRYLMKLNSDGSHSKGDGIPDRFSGSSSGAERYLTISSLQSEDEADYYCQTWGTGIRVFGGGTKLTVLG" result_unit=s⁻¹ measured_value=0.00022
binder="anti-ROR1 scFv ROR1-3 fused to murine IgG2a Fc (scFv-mFc) (Fc fusion, part only; not given: murine IgG2a Fc and junction, not shown: another chain or arm of the molecule; a dimerising Fc or GST) scFv: QVQLVQSGAEVKKPGASVKVSCKASGYTFTSYGISWVRQAPGQGLEWMGWISAYNGNTKYAQKLQGRVTMTTDTSTSTAYMELRSLRSDDTAVYYCARDEDILTGYNYYGMDVWGQGTTVTVSSGGGGSGGGGSGGGGSQLVLTQSPSASASLGASVKLTCTLSSGHSSYAIAWHQQQPEKGPRYLMKLNSDGSHSKGDGIPDRFSGSSSGAERYLTISSLQSEDEADYYCQTWGTGIRVFGGGTKLTVLG" result_unit=s⁻¹ measured_value=1.08e-05
